test_name: STAT1 signaling activators, primary screen, cell-based, HTS, luciferase reporter (AID 932);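 also: raw ratio to IFN-gamma control signal so 100% means no change and 0% no light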
experimental_context: NIH 3T3 STAT1-luciferase reporter, IFN-gamma, luminescence; at 5.5 µM; stronger effect = higher value; 100% = IFN-gamma alone, no compound
The whole screen tested about 200,000 compounds, of which about 5,100 (2.5%) were called active. Many of the other results were omitted from the sample, so actives are more common in it than they were.
measured_attribute: activation (% of control) (%)
API: value field is a number in %; no unit string.

Example entries and their recorded answers appear below.
[[record]]
molecule = "O=C(CSCc1cccs1)N1CCCC1"
measured_attribute = "activation (% of control)"
u = "%"
reported_measurement = 129

[[record]]
molecule = "O=C(CCN1CCCCC1)N=Nc1c(O)[nH]c2ccccc12"
measured_attribute = "activation (% of control)"
u = "%"
reported_measurement = 93.5

[[record]]
molecule = "C/C(CC(=O)Nc1ccc(C)cc1C)=N\\NC(=O)C(C)C"
measured_attribute = "activation (% of control)"
u = "%"
reported_measurement = 102


## Task Which activation (% of control) is reported for this molecule? CCOc1ccc(-c2nnc(-c3ccco3)o2)cc1
## Result 93.5

## Task Entry under review: Cn1c(SCc2c(F)cccc2Cl)nnc1-c1cnccn1 . Reported activation (% of control)?
## Result 130

## Task # query: activation (% of control) of entry Cc1cc(Cl)ccc1OCc1nc(-c2ccncc2)no1
## Result 151

Just for reference, PubChem BioAssay AID932 is where these values come from.
